Measured log10(koff) by item
# Experimental System: recombinant mouse prion protein immobilised for SPR (mPrP) (Mus musculus, UniProt P04925)
# Sequence (P04925 23-230): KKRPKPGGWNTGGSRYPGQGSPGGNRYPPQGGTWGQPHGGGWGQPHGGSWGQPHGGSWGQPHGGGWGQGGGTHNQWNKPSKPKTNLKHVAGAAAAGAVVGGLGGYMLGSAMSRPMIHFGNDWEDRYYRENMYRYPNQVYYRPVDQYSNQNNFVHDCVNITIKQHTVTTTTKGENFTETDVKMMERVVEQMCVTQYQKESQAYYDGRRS
# Assay: SPR
# Assay Conditions: both partners purified
Property Measured: log10(koff) (log10 of the value in s⁻¹)

Binder	log10(koff)
pomolog hcY104A (POM1 scFv, heavy chain Y104A) (scFv, V domains shown) VH: QVQLQQSGTELVMPGASVKMSCKASGYTFTDYWMHWVKQRPGQGLEWIGSIDPSDSYTSHNEKFKGKATLTVDESSSTAYMQLSSLTSEDSAVYFCSRSGYGYAAMEYWGQGTSVTVSS VL: DIVLTQSPAILSVSPGERVSFSCRASQNIGTSIHWYQQRTNESPRLIIKYASESISGIPSRFSGSGSGTDFTLSINSVESEDIADYYCQQSNTWPYTFGGGTKLELK	-3.68
pomolog lcS91A (POM1 scFv, light chain S91A) (scFv, V domains shown) VH: QVQLQQSGTELVMPGASVKMSCKASGYTFTDYWMHWVKQRPGQGLEWIGSIDPSDSYTSHNEKFKGKATLTVDESSSTAYMQLSSLTSEDSAVYFCSRSGYGYYAMEYWGQGTSVTVSS VL: DIVLTQSPAILSVSPGERVSFSCRASQNIGTSIHWYQQRTNESPRLIIKYASESISGIPSRFSGSGSGTDFTLSINSVESEDIADYYCQQANTWPYTFGGGTKLELK	-1.74
pomolog hcY101A (POM1 scFv, heavy chain Y101A) (scFv, V domains shown) VH: QVQLQQSGTELVMPGASVKMSCKASGYTFTDYWMHWVKQRPGQGLEWIGSIDPSDSYTSHNEKFKGKATLTVDESSSTAYMQLSSLTSEDSAVYFCSRSGAGYYAMEYWGQGTSVTVSS VL: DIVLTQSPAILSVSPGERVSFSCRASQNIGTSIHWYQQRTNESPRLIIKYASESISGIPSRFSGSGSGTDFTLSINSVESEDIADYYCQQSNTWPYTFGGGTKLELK	-3.15
pomolog lcY96A (POM1 scFv, light chain Y96A) (scFv, V domains shown) VH: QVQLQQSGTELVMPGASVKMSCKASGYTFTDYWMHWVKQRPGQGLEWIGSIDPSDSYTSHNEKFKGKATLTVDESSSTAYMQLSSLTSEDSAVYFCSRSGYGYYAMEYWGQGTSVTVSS VL: DIVLTQSPAILSVSPGERVSFSCRASQNIGTSIHWYQQRTNESPRLIIKYASESISGIPSRFSGSGSGTDFTLSINSVESEDIADYYCQQSNTWPATFGGGTKLELK	-2.13
pomolog lcS32A (POM1 scFv, light chain S32A) (scFv, V domains shown) VH: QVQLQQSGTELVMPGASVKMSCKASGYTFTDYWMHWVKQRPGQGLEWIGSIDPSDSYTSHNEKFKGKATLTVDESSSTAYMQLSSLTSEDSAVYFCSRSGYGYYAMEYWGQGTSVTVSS VL: DIVLTQSPAILSVSPGERVSFSCRASQNIGTAIHWYQQRTNESPRLIIKYASESISGIPSRFSGSGSGTDFTLSINSVESEDIADYYCQQSNTWPYTFGGGTKLELK	-3.23
pomolog hcY57A (POM1 scFv, heavy chain Y57A) (scFv, V domains shown) VH: QVQLQQSGTELVMPGASVKMSCKASGYTFTDYWMHWVKQRPGQGLEWIGSIDPSDSATSHNEKFKGKATLTVDESSSTAYMQLSSLTSEDSAVYFCSRSGYGYYAMEYWGQGTSVTVSS VL: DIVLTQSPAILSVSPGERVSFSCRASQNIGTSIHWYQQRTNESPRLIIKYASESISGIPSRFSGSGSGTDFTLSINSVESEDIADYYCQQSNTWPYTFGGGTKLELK	-1.51
pomolog lcW94A (POM1 scFv, light chain W94A) (scFv, V domains shown) VH: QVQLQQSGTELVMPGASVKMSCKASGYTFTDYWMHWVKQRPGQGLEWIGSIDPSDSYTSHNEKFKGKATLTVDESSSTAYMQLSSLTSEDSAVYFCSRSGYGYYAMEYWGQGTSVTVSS VL: DIVLTQSPAILSVSPGERVSFSCRASQNIGTSIHWYQQRTNESPRLIIKYASESISGIPSRFSGSGSGTDFTLSINSVESEDIADYYCQQSNTAPYTFGGGTKLELK	-1.57

Taken from paper PMC9371974.
